# target.of.assay: Caspase recruitment domain-containing protein 9 (Homo sapiens) + E3 ubiquitin-protein ligase TRIM62 (Homo sapiens) (UniProt Q9H257+Q9BVG3)
# Sequence (Q9BVG3 whole entry, looked up, the tested form may be a part): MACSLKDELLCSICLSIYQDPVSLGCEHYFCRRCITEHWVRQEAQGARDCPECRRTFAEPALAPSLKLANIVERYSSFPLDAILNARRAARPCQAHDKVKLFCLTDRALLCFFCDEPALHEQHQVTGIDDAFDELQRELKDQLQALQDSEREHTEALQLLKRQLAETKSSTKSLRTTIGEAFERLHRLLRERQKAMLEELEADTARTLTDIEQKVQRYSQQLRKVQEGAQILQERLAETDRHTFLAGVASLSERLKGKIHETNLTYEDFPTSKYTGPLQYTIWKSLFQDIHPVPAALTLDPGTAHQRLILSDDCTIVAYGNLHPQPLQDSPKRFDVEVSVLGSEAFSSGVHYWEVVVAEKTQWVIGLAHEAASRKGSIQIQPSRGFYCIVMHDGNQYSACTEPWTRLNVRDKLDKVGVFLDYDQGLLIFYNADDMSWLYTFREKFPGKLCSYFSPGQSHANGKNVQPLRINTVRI
# Sequence (Q9H257 whole entry, looked up, the tested form may be a part): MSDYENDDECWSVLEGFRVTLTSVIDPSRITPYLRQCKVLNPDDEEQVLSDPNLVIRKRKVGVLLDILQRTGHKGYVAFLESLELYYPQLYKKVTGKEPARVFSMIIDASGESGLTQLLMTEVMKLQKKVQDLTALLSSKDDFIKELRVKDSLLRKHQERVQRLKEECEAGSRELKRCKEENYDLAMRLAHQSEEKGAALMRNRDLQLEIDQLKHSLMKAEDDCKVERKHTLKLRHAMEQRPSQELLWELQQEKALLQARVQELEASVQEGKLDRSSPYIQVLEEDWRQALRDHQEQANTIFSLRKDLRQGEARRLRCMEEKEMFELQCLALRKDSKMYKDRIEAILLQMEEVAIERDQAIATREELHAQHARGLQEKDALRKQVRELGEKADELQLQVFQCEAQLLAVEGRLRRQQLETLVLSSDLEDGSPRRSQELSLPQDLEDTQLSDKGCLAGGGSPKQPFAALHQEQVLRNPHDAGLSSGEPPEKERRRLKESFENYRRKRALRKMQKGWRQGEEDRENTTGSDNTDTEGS
# assay.name: CARD9/TRIM62 protein interaction inhibitors – cell lysate, HEK293FT lysates, Luminex bead readout, dose response (AID 1259338); also: reference of the scale not given here
# conditions: Luminex bead PPI, MFI, at 38 µM (top of the series)
Activity calls are given as the source filed them.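 The calls were made as follows: active = compounds lowering the signal with a fitted AC50 at or below a set concentration limit; inconclusive = flat curve with 30 to 70% inhibition, or a poor fit; inactive = the rest.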
reported.property: activity change, negative = inhibition

Consider the reported activity change, negative = inhibition for these molecules:
molecule	activity change, negative = inhibition
Cc1cccc(Nc2nc(C(=O)Nc3cc(F)ccc3F)nc3ccccc23)c1	inactive
COCCn1c(C)cc(-c2csc(N)n2)c1C	inactive
Cc1ccc(C)n1Nc1nc(O)cs1	inactive
COc1ccc(NC(=O)c2nc(Nc3ccccc3)c3ccccc3n2)cc1	inactive

Now for the molecule whose activity change, negative = inhibition we want.
// sample CCC12CCCN3CCc4c(n(c5ccccc45)C(O)(C(=O)OC)C1)C32 (stereo not given) , its activity change, negative = inhibition was inactive
